# measurement_target: human GR (Homo sapiens)
# Construct: U937 cells contain an endogenous glucocorticoid receptor (GR); endogenous in cells; host or cells: U937 cells stably transfected with the TNF-alpha promoter/beta-lactamase reporter
# Sequence (P04150 1-777): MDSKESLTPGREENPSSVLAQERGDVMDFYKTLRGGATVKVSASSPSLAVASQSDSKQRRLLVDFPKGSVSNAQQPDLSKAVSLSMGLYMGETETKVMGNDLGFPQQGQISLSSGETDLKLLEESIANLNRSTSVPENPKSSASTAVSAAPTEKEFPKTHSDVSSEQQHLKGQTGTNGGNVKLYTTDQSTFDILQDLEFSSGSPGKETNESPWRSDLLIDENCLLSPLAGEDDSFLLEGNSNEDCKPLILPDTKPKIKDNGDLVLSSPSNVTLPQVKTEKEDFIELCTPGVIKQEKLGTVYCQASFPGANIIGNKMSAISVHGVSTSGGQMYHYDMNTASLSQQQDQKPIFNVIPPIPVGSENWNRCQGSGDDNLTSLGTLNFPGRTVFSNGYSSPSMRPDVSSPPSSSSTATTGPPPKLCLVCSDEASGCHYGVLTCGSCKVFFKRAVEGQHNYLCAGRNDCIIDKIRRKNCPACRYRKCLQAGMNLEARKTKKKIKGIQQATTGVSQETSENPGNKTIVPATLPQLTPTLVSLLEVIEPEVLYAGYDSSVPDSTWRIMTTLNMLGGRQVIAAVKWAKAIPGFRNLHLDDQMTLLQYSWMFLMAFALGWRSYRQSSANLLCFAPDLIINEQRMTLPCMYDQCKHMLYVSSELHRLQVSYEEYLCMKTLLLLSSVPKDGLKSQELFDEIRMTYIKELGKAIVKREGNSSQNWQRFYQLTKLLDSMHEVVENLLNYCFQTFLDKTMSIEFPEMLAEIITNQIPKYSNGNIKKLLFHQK
# assay_text: Transrepression Assay (GITAR), TNFα-β-lactamase reporter gene in U937 cells
# Format: cell-based
# assay_conditions: inflection point; U937 cells; Table 1; read-out: Transrepression U937 Cells GITAR IP
pEC50: −log10 of the molar value.
Use T when the recorded pEC50 is no lower than 6; use F when it is lower.

1) C[C@]12Cc3cnn(-c4ccc(F)cc4)c3C=C1CC[C@@H]2C(=O)Nc1ccccc1S(N)(=O)=O | F
2) CN(CCC(F)(F)F)C(=O)[C@H]1CCC2=Cc3c(cnn3-c3ccc(F)cc3)C[C@@]21C | T
3) C[C@]12Cc3cnn(-c4ccc(F)cc4)c3C=C1CC[C@@H]2C(=O)N(CCO)CC(O)C(F)(F)F (stereo partly shown) | T
4) CC(C)CN(CC(O)C(F)(F)F)C(=O)[C@H]1CCC2=Cc3c(cnn3-c3ccc(F)cc3)C[C@@]21C (stereo partly shown) | T
5) CC(O)CN(CC(C)O)C(=O)[C@H]1CCC2=Cc3c(cnn3-c3ccc(F)cc3)C[C@@]21C (stereo partly shown) | T
6) C[C@]12Cc3cnn(-c4ccc(F)cc4)c3C=C1CC[C@@H]2C(=O)N(Cc1ccccc1F)CC(O)C(F)(F)F (stereo partly shown) | T

---

# measurement_target: human GR (Homo sapiens)
# Construct: U937 cells contain an endogenous glucocorticoid receptor (GR); endogenous in cells; host or cells: U937 cells stably transfected with the TNF-alpha promoter/beta-lactamase reporter
# Sequence (P04150 1-777): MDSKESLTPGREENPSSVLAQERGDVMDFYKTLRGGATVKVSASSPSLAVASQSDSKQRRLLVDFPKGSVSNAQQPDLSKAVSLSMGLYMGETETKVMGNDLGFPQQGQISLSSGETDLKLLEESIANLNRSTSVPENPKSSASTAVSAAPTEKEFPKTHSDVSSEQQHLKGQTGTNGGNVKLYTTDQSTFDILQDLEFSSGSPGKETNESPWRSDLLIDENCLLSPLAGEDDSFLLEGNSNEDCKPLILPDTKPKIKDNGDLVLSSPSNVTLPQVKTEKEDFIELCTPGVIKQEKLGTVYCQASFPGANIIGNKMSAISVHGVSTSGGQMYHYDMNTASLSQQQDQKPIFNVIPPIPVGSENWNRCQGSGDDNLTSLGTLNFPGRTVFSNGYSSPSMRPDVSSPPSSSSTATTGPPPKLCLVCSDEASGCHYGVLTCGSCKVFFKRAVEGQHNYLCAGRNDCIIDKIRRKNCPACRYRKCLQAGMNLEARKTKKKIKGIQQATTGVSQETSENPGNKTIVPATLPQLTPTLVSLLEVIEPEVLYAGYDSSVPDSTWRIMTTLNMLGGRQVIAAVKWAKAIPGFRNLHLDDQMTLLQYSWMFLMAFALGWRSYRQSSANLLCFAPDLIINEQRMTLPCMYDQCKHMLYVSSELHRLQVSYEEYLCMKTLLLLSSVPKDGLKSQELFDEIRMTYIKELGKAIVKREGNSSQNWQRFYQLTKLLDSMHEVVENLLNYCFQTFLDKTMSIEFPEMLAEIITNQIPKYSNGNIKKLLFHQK
# assay_text: Transrepression Assay (GITAR), TNFα-β-lactamase reporter gene in U937 cells
# Type: cell-based
# assay_conditions: U-937, U937 cells; activity repressed by 100 nM dexamethasone = 100%; Table 1; read-out: Transrepression U937 Cells GITAR Emax
reported_metric: Emax (%)

1) CN(CC(O)C(F)(F)F)C(=O)[C@H]1CCC2=Cc3c(cnn3-c3ccccc3)C[C@@]21C (stereo partly shown) [Compound 74] | 73.9
2) C[C@]12Cc3cnn(-c4ccc(F)cc4)c3C=C1CC[C@@H]2C(=O)N(CCc1ccccc1)Cc1ccccc1 [Compound 49] | 11.6
3) CN(Cc1cccc(C(F)(F)F)c1)C(=O)[C@H]1CCC2=Cc3c(cnn3-c3ccc(F)cc3)C[C@@]21C [Compound 46] | 15.3
4) C[C@]12Cc3cnn(-c4ccc(F)cc4)c3C=C1CC[C@@H]2C(=O)N1CCC(S(=O)(=O)c2ccccc2)CC1 [Compound 51] | 35.1
5) C[C@]12Cc3cnn(-c4ccc(F)cc4)c3C=C1CC[C@@H]2C(=O)N(CCC#N)C1CC1 [Compound 14] | 38.3
6) CC(C)CN(CC(C)C)C(=O)[C@H]1CCC2=Cc3c(cnn3-c3ccc(F)cc3)C[C@@]21C [Compound 11] | 67.5
7) CC(O)CN(CC(C)O)C(=O)[C@H]1CCC2=Cc3c(cnn3-c3ccc(F)cc3)C[C@@]21C (stereo partly shown) [Compound 10] | 59.8

---

# measurement_target: Glucocorticoid Receptor (Homo sapiens)
# Construct: These cells express large amount of the GR and are very responsive to GC treatment; endogenous in cells; host or cells: A549 cells transiently transfected with the MMTV-LUC reporter
# Sequence (P04150 1-777): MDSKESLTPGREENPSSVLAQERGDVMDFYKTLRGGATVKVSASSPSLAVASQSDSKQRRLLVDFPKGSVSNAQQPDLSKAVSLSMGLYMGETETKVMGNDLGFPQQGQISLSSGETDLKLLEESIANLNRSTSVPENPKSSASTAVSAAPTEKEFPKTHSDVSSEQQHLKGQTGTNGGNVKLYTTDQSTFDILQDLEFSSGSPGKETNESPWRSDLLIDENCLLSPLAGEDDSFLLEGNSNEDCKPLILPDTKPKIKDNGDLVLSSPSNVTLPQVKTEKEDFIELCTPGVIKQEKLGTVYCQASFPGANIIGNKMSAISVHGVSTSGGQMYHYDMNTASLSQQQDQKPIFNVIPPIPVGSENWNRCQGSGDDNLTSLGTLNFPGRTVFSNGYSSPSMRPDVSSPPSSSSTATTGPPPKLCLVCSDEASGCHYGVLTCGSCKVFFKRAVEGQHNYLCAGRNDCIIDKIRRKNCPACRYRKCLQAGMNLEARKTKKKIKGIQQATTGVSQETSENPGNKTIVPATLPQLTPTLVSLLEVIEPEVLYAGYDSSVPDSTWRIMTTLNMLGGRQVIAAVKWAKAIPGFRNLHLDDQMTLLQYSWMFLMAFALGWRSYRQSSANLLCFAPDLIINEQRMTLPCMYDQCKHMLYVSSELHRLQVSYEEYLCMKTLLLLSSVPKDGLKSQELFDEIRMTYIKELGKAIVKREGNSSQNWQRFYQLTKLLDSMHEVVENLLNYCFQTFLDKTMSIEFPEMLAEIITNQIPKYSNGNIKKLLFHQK
# assay_text: Trans-Activation Modulation of Glucocorticoid Receptor (GRAMMER), MMTV-LUC reporter gene in A549 cells
# Assay type: cell-based
# assay_conditions: inflection point; A549 cells; Table 1; read-out: Transactivation A549 Cells GRAMMER IP
log10(EC50) for assorted compounds
reported_metric: log10(EC50) (log10 of the value in nM)

1) CCCCCN(CCO)C(=O)[C@H]1CCC2=Cc3c(cnn3-c3ccc(F)cc3)C[C@@]21C [Compound 38] | 2.82
2) COc1ccccc1CCN(CC(O)CC(F)(F)F)C(=O)[C@H]1CCC2=Cc3c(cnn3-c3ccc(F)cc3)C[C@@]21C (stereo partly shown) [Compound 86] | 2.61
3) C[C@]12Cc3cnn(-c4ccc(F)cc4)c3C=C1CC[C@@H]2C(=O)N1CCCC(CCc2ccccc2)C1 (stereo partly shown) [Compound 20] | 0.11
4) C[C@]12Cc3cnn(-c4ccc(F)cc4)c3C=C1CC[C@@H]2C(=O)Nc1ccccc1 [Compound 6] | 2.12
5) CCCN(CC1CCCO1)C(=O)[C@H]1CCC2=Cc3c(cnn3-c3ccc(F)cc3)C[C@@]21C (stereo partly shown) [Compound 62] | 2.78
6) CCCCN(CCC)C(=O)[C@H]1CCC2=Cc3c(cnn3-c3ccc(F)cc3)C[C@@]21C [Compound 56] | 2.63
7) C[C@]12Cc3cnn(-c4ccc(F)cc4)c3C=C1CC[C@@H]2C(=O)N(CCc1ccccc1F)CC(O)CC(F)(F)F (stereo partly shown) [Compound 95] | 2.57
8) CCCN(CC(O)C(F)(F)F)C(=O)[C@H]1CCC2=Cc3c(cnn3-c3ccc(F)cc3)C[C@@]21C (stereo partly shown) [Compound 61] | 1.75
9) C[C@]12Cc3cnn(-c4ccc(F)cc4)c3C=C1CC[C@@H]2C(=O)NC(Cc1ccccc1)c1ccccc1 (stereo partly shown) [Compound 2] | 3.05
10) CCCN(CCC(F)(F)F)C(=O)[C@H]1CCC2=Cc3c(cnn3-c3ccc(F)cc3)C[C@@]21C [Compound 88] | 2.57
11) Cc1ccc(CN(CCO)C(=O)[C@H]2CCC3=Cc4c(cnn4-c4ccc(F)cc4)C[C@@]32C)cc1F [Compound 27] | 3.33
12) CC(C)CN(C[C@H](C)O)C(=O)[C@H]1CCC2=Cc3c(cnn3-c3ccc(F)cc3)C[C@@]21C [Compound 66] | 2.79
13) COc1cc(CN(CCO)C(=O)[C@H]2CCC3=Cc4c(cnn4-c4ccc(F)cc4)C[C@@]32C)cc(OC)c1 [Compound 34] | 3.18
14) C[C@]12Cc3cnn(-c4ccc(F)cc4)c3C=C1CC[C@@H]2C(=O)N(CCO)Cc1cccc(F)c1 [Compound 33] | 2.95
15) CCN(CC(O)C(F)(F)F)C(=O)[C@H]1CCC2=Cc3c(cnn3-c3ccc(F)cc3)C[C@@]21C (stereo partly shown) [Compound 72] | 1.57
16) CCN(CC(O)C(F)(F)F)C(=O)[C@H]1CCC2=Cc3c(cnn3-c3ccccc3)C[C@@]21C (stereo partly shown) [Compound 76] | 2.50

From: patent US8338472B2
